experimental readout: melting point

Prompt: For CCNc1nc2cccc(C(=O)OC(C)OC(=O)OC3CCCCC3)c2n1Cc1ccc(-c2ccccc2-c2nnn[nH]2)cc1 (stereo not shown) [Working Example 63] , what is its reported melting point?
Response: 149 to 152 °C

----------
- tgt: A II receptor (Bos taurus)
- Construct: An A II receptor membrane fraction was prepared from bovine adrenal cortex; from tissue; host or cells: bovine adrenal cortex membrane fraction
- Sequence (P25104 whole entry): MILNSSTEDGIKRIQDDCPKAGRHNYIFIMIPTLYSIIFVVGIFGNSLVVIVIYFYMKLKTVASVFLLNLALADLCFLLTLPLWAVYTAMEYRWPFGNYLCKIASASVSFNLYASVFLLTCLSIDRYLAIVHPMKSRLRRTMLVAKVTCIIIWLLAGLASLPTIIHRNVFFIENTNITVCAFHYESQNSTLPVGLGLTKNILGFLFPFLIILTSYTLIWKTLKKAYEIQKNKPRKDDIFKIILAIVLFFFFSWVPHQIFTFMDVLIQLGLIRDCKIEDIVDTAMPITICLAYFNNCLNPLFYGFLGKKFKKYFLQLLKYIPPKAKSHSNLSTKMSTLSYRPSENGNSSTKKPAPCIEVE
- test name: Inhibition of binding of angiotensin II to angiotensin receptor (radioreceptor assay)
- Set-up: species or system bovine
- condition context: 1 h; read-out: Radioreceptor Assay 1 × 10^−7M
experimental readout: inhibition at 0.1 µM (%)

The following molecules have reported results that may help.
| molecule | tgt | measurement unit | inhibition at 0.1 µM |
| --- | --- | --- | --- |
| CCOc1nc2cccc(C(=O)OCOC(=O)C3CCCCC3)c2n1Cc1ccc(-c2ccccc2-c2nnn[nH]2)cc1 [Example 58] | A II receptor (Bos taurus) | % | 55 |
| COc1nc2cccc(C(=O)O)c2n1Cc1ccc(-c2ccccc2-c2nnn[nH]2)cc1 [Example 46] | A II receptor (Bos taurus) | % | 66 |
| CCOc1nc2cccc(C(=O)OC)c2n1Cc1ccc(-c2ccccc2-c2nnn[nH]2)cc1 [Example 39] | A II receptor (Bos taurus) | % | 58 |
| CCOc1nc2cccc(C(=O)OCc3oc(=O)oc3C)c2n1Cc1ccc(-c2ccccc2-c2nnn[nH]2)cc1 [Example 49] | A II receptor (Bos taurus) | % | 66 |

[P] CCCSc1nc2cccc(C(=O)OCC)c2n1Cc1ccc(-c2ccccc2-c2nnn[nH]2)cc1 [Example 35]
[Q] CCCNc1nc2cccc(C(=O)O)c2n1Cc1ccc(-c2ccccc2-c2nnn[nH]2)cc1 [Example 48]
Prompt: // compare measured inhibition at 0.1 µM, left P , right Q , return larger Return value: the label identifying the chosen record.
Response: Q

[A] CCCSc1nc2cccc(C(=O)O)c2n1Cc1ccc(-c2ccccc2-c2nnn[nH]2)cc1 [Example 38]
[B] CCOc1nc2cccc(C(=O)OCOC(=O)C3CCCC3)c2n1Cc1ccc(-c2ccccc2-c2nnn[nH]2)cc1 [Example 61]
Prompt: Sort A and B by inhibition at 0.1 µM descending and give the first. Kindly give the label for the entry you pick.
Response: B
(B: 54%, A: 6%)
